Hi there, I'd appreciate the recorded GI50 for every entry that follows.
System: NCI-H522
Assay: NCI tumour cell line growth inhibition, 48 h
Calls of active or inactive are those of the source. Rule as the data show it: active = GI50 up to about 1.1 µM and inactive = higher.

Record for O=C(CC1C(=O)Nc2ccccc2[S+]1[O-])Nc1ccccc1 (configuration not stated) under target or system NCI-H522: GI50 reported as > 100 µM (inactive)

Record for "CCOC(=O)c1sc2nc(SC)nc3c2c1NC(=O)CN3c1cccc(F)c1" under target or system NCI-H522: GI50 reported as 26.5 µM (inactive)

Record for COc1cccc2c1C(=O)c1c(O)c3c(c(O)c1C2=O)CC(O)(C(C)=O)CC3OC1CC([N+](C)(C)C)C(O)C(C)O1 (configuration not stated) under target or system NCI-H522: GI50 reported as 31.3 µM (inactive)

Record for "Cc1c(S(=O)(=O)c2ccccc2)c(N)n(CCN(C)C)c1C" under target or system NCI-H522: GI50 reported as > 100 µM (inactive)

Record for "CN(C)Cc1ccc(C(C)(C)C)cc1-c1cc(C(C)(C)C)ccc1CN(C)C" under target or system NCI-H522: GI50 reported as 50.5 µM (inactive)

Record for "NC(=S)NNC(=O)CCC(=O)Nc1ccc(Cl)cc1Cl" under target or system NCI-H522: GI50 reported as > 100 µM (inactive)

Record for C=CCCC1(O)C(O)C(CO)O[C@H](O[C@@]2(CO)OC(CO)C(O)C2O)C1O (some centres not stated) under target or system NCI-H522: GI50 reported as > 100 µM (inactive)

* * *

Hi there, I'd appreciate the recorded GI50 for every entry that follows.
Tested on: RXF 393
Experiment: NCI tumour cell line growth inhibition, 48 h
Active and inactive are the calls of the source. Cut-off read from the data, not from the text of the source: active = GI50 up to about 1.1 µM and inactive = higher.

The reported value for "COc1ccc2nc3c([N+](=O)[O-])ccc(NCCN(C)C)c3c(N)c2c1" in terms of GI50 is 1.57 µM (inactive)

The reported value for CCOC(=O)C(NC(C)=O)(Nc1ccc(S(N)(=O)=O)cc1)C(F)(F)F (stereo unspecified) in terms of GI50 is > 100 µM (inactive)

The reported value for CC(C)[C@H](CCl)NC(=O)c1cccc(C(=O)N[C@H](CCl)C(C)C)n1 (stereo in doubt) in terms of GI50 is > 100 µM (inactive)

The reported value for "Oc1nc(-c2ccc3ccccc3c2)nc2ccccc12" in terms of GI50 is 25.4 µM (inactive)

The reported value for "COc1ccc(C2=C(OC(C)=O)c3cccn3-c3ccccc3S2)cc1" in terms of GI50 is 1.61 µM (inactive)

The reported value for "O=S(=O)(O)c1ccc2c(/N=N/c3cccc4ccccc34)c(O)c(S(=O)(=O)O)cc2c1" in terms of GI50 is > 100 µM (inactive)

The reported value for "O=S(=O)(O)c1ccc2cc(/N=N\c3cc(S(=O)(=O)O)c4cccnc4c3O)ccc2c1" in terms of GI50 is > 100 µM (inactive)

The reported value for "S=c1nc(N2CCCCC2)ss1" in terms of GI50 is 16.7 µM (inactive)

The reported value for CC1(C)CCC2=C(O1)c1ccccc1C(=O)C2=O [LAPACHONE] in terms of GI50 is 1.41 µM (inactive)

The reported value for "CCCCCCCCCCCCOCCCOP(=O)([O-])OCC[N+](C)(C)C" in terms of GI50 is 9.75 µM (inactive)

The reported value for O=C(O)C(Cc1cccs1)NC(=O)C(F)(F)F (stereo unspecified) in terms of GI50 is > 100 µM (inactive)

* * *

System: SW-620
Test: NCI tumour cell line growth inhibition, 48 h
Counter-ions that a name gives are not always drawn. The source made the active and inactive calls. Rule as the data show it: active = GI50 up to about 1.1 µM and inactive = higher.
Hi there, I'd appreciate the recorded GI50 for every entry that follows.

Record for "N=C(N)NS(=O)(=O)c1ccc(NCc2c3ccccc3nc3ccccc23)cc1" under target or system SW-620: GI50 reported as 1.59 µM (inactive)

Record for "CN(C)CC/C(=N\Nc1ccc(Cl)c(Cl)c1)c1ccccc1" under target or system SW-620: GI50 reported as 1.72 µM (inactive)

Record for "COC(=O)CNS(=O)(=O)c1ccc(-c2c3nc(c(-c4ccc(S(=O)(=O)NCC(=O)OC)cc4)c4ccc([nH]4)c(-c4ccc(S(=O)(=O)NCC(=O)OC)cc4)c4nc(c(-c5ccc(S(=O)(=O)NCC(=O)OC)cc5)c5ccc2[nH]5)C=C4)C=C3)cc1" under target or system SW-620: GI50 reported as > 100 µM (inactive)

Record for CC(CN1c2ccccc2Sc2ccccc21)N(C)C (centres undefined) [PROMETHAZINE HYDROCHLORIDE] under target or system SW-620: GI50 reported as 23.6 µM (inactive)

Record for "Nc1nc(CCc2n[nH]c(N)n2)n[nH]1" under target or system SW-620: GI50 reported as > 100 µM (inactive)

Record for "N#Cc1nc(COCCOCc2ccc(F)cc2)oc1N" under target or system SW-620: GI50 reported as > 100 µM (inactive)

Record for CC(C)[C@H](CCl)NC(=O)c1cccc(C(=O)N[C@H](CCl)C(C)C)n1 (stereo in doubt) under target or system SW-620: GI50 reported as > 100 µM (inactive)

Record for "N#C/C(=C\c1cccc(O)c1)C(N)=O" under target or system SW-620: GI50 reported as > 100 µM (inactive)

Record for OC1(c2ccccc2)CCCCCCCCC(O)(c2ccccc2)CCCCCCCC1 (centres undefined) under target or system SW-620: GI50 reported as > 100 µM (inactive)

* * *

System: SF-539
Experiment: NCI tumour cell line growth inhibition, 48 h
Calls of active or inactive are those of the source. Rule as the data show it: active = GI50 up to about 1.1 µM and inactive = higher.
# output must be one of T (active), F (inactive)

Each compound tested received a call. Report the one for "CN(C)Cc1ccc(C(C)(C)C)cc1-c1cc(C(C)(C)C)ccc1CN(C)C" .
F

Each compound tested received a call. Report the one for "CN(C)N1C(=O)S/C(=C\c2ccc([N+](=O)[O-])cc2)C1=O" .
F

Each compound tested received a call. Report the one for "COc1ccc(/C=C/C(=N/NC(=O)N/N=C(/C=C/c2ccc(OC)cc2)C(C)(C)CN2CCCCC2)C(C)(C)CN2CCCCC2)cc1" .
F

Each compound tested received a call. Report the one for "CCOC(=O)c1c(-c2cccc(Cl)c2)c(C(=O)OC)c(C)c2sc(C=O)nc12" .
F

Each compound tested received a call. Report the one for CN(C)CC1(C)CC/C(=C\c2ccccc2)C1=O (stereo unspecified) .
F

Each compound tested received a call. Report the one for C=CC(C)CCC(C/C=C(\C)CCCC(C)C)C(=C)CCCC(C)C (stereo unspecified) .
F

Each compound tested received a call. Report the one for "CN(C)/N=N/c1ccc(NC=O)cc1" .
F

Each compound tested received a call. Report the one for C[C@]12CC[C@H](OC3OC(CO)C(O)C(O)C3O)C[C@H]1CC[C@@H]1[C@@H]2CC[C@]2(C)[C@@H](C3=CCOC3=O)CC[C@]12O (stereo partly specified) [ACTODIGIN] .
T

Each compound tested received a call. Report the one for "Nc1nc(N)nc(CC(=O)O)n1" .
F

Each compound tested received a call. Report the one for "Cn1c(=O)c2nc3c(=O)n(C)c(=O)n(CC(N)=O)c3nc2n(C)c1=O" .
F

Each compound tested received a call. Report the one for "N=C(N)NS(=O)(=O)c1ccc(NCc2c3ccccc3nc3ccccc23)cc1" .
T

Each compound tested received a call. Report the one for "CC(=O)OCc1ccc(-c2nc(C#N)c(N)o2)o1" .
F

Each compound tested received a call. Report the one for OCC1OC(n2cnc3c2NC=NC[C@H]3O)C(O)C1O (stereo partly specified) .
F

Each compound tested received a call. Report the one for "C[n+]1c2ccccc2c(NCC(=O)O)c2ccccc21" .
F

Each compound tested received a call. Report the one for "CC1=C(C(=O)NCc2ccccc2)C(c2ccco2)C(C(=O)NCc2ccccc2)=C(C)N1" .
F

Each compound tested received a call. Report the one for "COC(=O)CCC1(CCC(=O)OC)CCCCCCC(CCC(=O)OC)(CCC(=O)OC)C(=O)C1=O" .
F

Each compound tested received a call. Report the one for "CCN(CC)CCCNc1ncc(C)c2c1c1ccc3c(O)cccc3c1n2C" .
F

Each compound tested received a call. Report the one for CC1=C(C(=O)O)N2C(=O)[C@@H](NC(=O)C(c3ccc(O)cc3)N3CSC(=S)N(C(C)C)C3)C2SC1 (stereo partly specified) .
F

Each compound tested received a call. Report the one for "NC(=S)NNC(=O)CCC(=O)Nc1ccc(Cl)cc1Cl" .
F

Each compound tested received a call. Report the one for "O=C1Cc2c([nH]c3cc(Br)ccc23)-c2ccccc2N1" .
F

Each compound tested received a call. Report the one for "O=S(=O)(Oc1ccc2ccccc2c1-c1c(OS(=O)(=O)C(F)(F)F)ccc2ccccc12)C(F)(F)F" .
F

Just for reference, ChEMBL document CHEMBL1201862 is where these values come from.
